Test system: MCF7
run-description: HRG-induced Akt activation (dPAkt = log2 pAkt/Akt HRG-stimulated minus log2 pAkt/Akt basal) (log2 ratio difference); higher = stronger HRG-induced Akt(T308) phosphorylation
experimental-setup: miRNA mimic concentration 10 nM; time after transfection 72 h; heregulin 10 ng/ml; stimulation time 1 h
Class MET: HRG-induced Akt activation (log2) at least 2. Class NOT MET: HRG-induced Akt activation (log2) below 2.

{"input-sequence": "UUUGGUCCCCUUCAACCAGCUG", "category": "NOT MET"}
{"input-sequence": "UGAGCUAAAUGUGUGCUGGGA", "category": "NOT MET"}
{"input-sequence": "UUCAUUUGGUAUAAACCGCGAUU", "category": "MET"}
{"input-sequence": "CACAAGGUAUUGGUAUUACCU", "category": "NOT MET"}
{"input-sequence": "CAAAGCGCUUCUCUUUAGAGUGU", "category": "NOT MET"}
{"input-sequence": "UUGCAUAUGUAGGAUGUCCCAU", "category": "NOT MET"}
{"input-sequence": "UCCCUGUCCUCCAGGAGCUCACG", "category": "NOT MET"}
{"input-sequence": "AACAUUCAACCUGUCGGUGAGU", "category": "MET"}
{"input-sequence": "UUGCAUAGUCACAAAAGUGAUC", "category": "NOT MET"}
